Test system: 521955-158-R2-J5-PDC complex spheroid viability;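 note: spheroids exposed to agents for one week before reading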
Test: Anticancer human tumor 521955-158-R2-J5-PDC patient-derived pancreatic carcinoma cell line growth inhibition [GQUAD]
Settings: second compound 0.1 µM; first compound 3.16 µM; stronger effect = lower value
Recorded viability, T/C split into classes Low = under 10%, Medium = from 10% up to 60%, High = 60% and over

[[record]]
compound = "CC1COCCN1c1cc(-c2ccnn2C)c2ccnc(-c3ccn[nH]3)c2n1 (stereo unspecified) + Cc1cnc(CNC(=O)c2c(=O)c3ccc(N4CCCN(C)CC4)nc3n3c2sc2ccccc23)cn1"
category_label = "Medium"

[[record]]
compound = "O=C(c1cc(Cc2n[nH]c(=O)c3ccccc23)ccc1F)N1CCN(C(=O)C2CC2)CC1 + Cc1[nH]c2ccc(F)cc2c1-c1nc2c3cccnc3c3ncccc3c2[nH]1"
category_label = "High"

[[record]]
compound = "CC(C)(O)C1CCC(Nc2ccc3ncc(-c4cccc(C(F)(F)F)c4)n3n2)CC1 (stereo unspecified) + Cc1cnc(CNC(=O)c2c(=O)c3ccc(N4CCCN(C)CC4)nc3n3c2sc2ccccc23)cn1"
category_label = "Low"

[[record]]
compound = "O=C(NO)c1cnc(N2CCN(S(=O)(=O)c3ccc4ccccc4c3)CC2)nc1 + Cc1cnc(CNC(=O)c2c(=O)c3ccc(N4CCCN(C)CC4)nc3n3c2sc2ccccc23)cn1"
category_label = "Low"

[[record]]
compound = "COc1cccc2c1C(=O)c1c(O)c3c(c(O)c1C2=O)CC(O)(C(=O)CO)CC3OC1CC(N)C(O)C(C)O1 (stereo unspecified) + Cc1[nH]c2ccc(F)cc2c1-c1nc2c3cccnc3c3ncccc3c2[nH]1"
category_label = "Low"

[[record]]
compound = "C#Cc1c(F)ccc2cc(O)cc(-c3ncc4c(N5CC6CCC(C5)N6)nc(OCC56CCCN5CC(F)C6)nc4c3F)c12 (stereo unspecified) + CN(C)c1ccc(Nc2c3ccc(NC(=O)CCN4CCCC4)cc3nc3cc(NC(=O)CCN4CCCC4)ccc23)cc1"
category_label = "Medium"

[[record]]
compound = "O=c1[nH]cc(F)c(=O)[nH]1 + Cc1cnc(CNC(=O)c2c(=O)c3ccc(N4CCCN(C)CC4)nc3n3c2sc2ccccc23)cn1"
category_label = "Medium"

[[record]]
compound = "CC(C)(O)C1CCC(Nc2ccc3ncc(-c4cccc(C(F)(F)F)c4)n3n2)CC1 (stereo unspecified) + Cc1[nH]c2ccc(F)cc2c1-c1nc2c3cccnc3c3ncccc3c2[nH]1"
category_label = "Medium"

[[record]]
compound = "CC1COCCN1c1cc(-c2ccnn2C)c2ccnc(-c3ccn[nH]3)c2n1 (stereo unspecified) + Cc1[nH]c2ccc(F)cc2c1-c1nc2c3cccnc3c3ncccc3c2[nH]1"
category_label = "Medium"

[[record]]
compound = "COc1cccc2c1C(=O)c1c(O)c3c(c(O)c1C2=O)CC(O)(C(=O)CO)CC3OC1CC(N)C(O)C(C)O1 (stereo unspecified) + CN(C)c1ccc(Nc2c3ccc(NC(=O)CCN4CCCC4)cc3nc3cc(NC(=O)CCN4CCCC4)ccc23)cc1"
category_label = "Low"

[[record]]
compound = "COc1cccc2c1C(=O)c1c(O)c3c(c(O)c1C2=O)CC(O)(C(=O)CO)CC3OC1CC(N)C(O)C(C)O1 (stereo unspecified) + Cc1cnc(CNC(=O)c2c(=O)c3ccc(N4CCCN(C)CC4)nc3n3c2sc2ccccc23)cn1"
category_label = "Low"

[[record]]
compound = "CC1COCCN1c1cc(C2(O)CC3CCC(C2)O3)c2cnn(-c3ccn[nH]3)c2n1 (stereo unspecified) + Cc1[nH]c2ccc(F)cc2c1-c1nc2c3cccnc3c3ncccc3c2[nH]1"
category_label = "Medium"

[[record]]
compound = "CC(=O)O[C@H]1C(=O)[C@@]2(C)[C@H]([C@H](OC(=O)c3ccccc3)[C@]3(O)C[C@H](OC(=O)[C@H](O)[C@@H](NC(=O)c4ccccc4)c4ccccc4)C(C)=C1C3(C)C)[C@]1(OC(C)=O)CO[C@@H]1C[C@@H]2O + Cc1[nH]c2ccc(F)cc2c1-c1nc2c3cccnc3c3ncccc3c2[nH]1"
category_label = "Medium"

[[record]]
compound = "CC1COCCN1c1cc(-c2ccnn2C)c2ccnc(-c3ccn[nH]3)c2n1 (stereo unspecified) + CN(C)c1ccc(Nc2c3ccc(NC(=O)CCN4CCCC4)cc3nc3cc(NC(=O)CCN4CCCC4)ccc23)cc1"
category_label = "Medium"

[[record]]
compound = "Cc1cccc(N(C)C(=O)C2C(O)CCN2c2nc(C)cc(C(F)(F)F)c2C#N)c1 (stereo unspecified) + CN(C)c1ccc(Nc2c3ccc(NC(=O)CCN4CCCC4)cc3nc3cc(NC(=O)CCN4CCCC4)ccc23)cc1"
category_label = "High"

[[record]]
compound = "C=CCn1c(=O)c2cnc(Nc3ccc(N4CCN(C)CC4)cc3)nc2n1-c1cccc(C(C)(C)O)n1 + Cc1[nH]c2ccc(F)cc2c1-c1nc2c3cccnc3c3ncccc3c2[nH]1"
category_label = "Medium"

[[record]]
compound = "CCCS(=O)(=O)Nc1ccc(F)c(C(=O)c2c[nH]c3ncc(-c4ccc(Cl)cc4)cc23)c1F + CN(C)c1ccc(Nc2c3ccc(NC(=O)CCN4CCCC4)cc3nc3cc(NC(=O)CCN4CCCC4)ccc23)cc1"
category_label = "High"

[[record]]
compound = "O=c1[nH]cc(F)c(=O)[nH]1 + CN(C)c1ccc(Nc2c3ccc(NC(=O)CCN4CCCC4)cc3nc3cc(NC(=O)CCN4CCCC4)ccc23)cc1"
category_label = "High"

[[record]]
compound = "Cc1cccc(N(C)C(=O)C2C(O)CCN2c2nc(C)cc(C(F)(F)F)c2C#N)c1 (stereo unspecified) + Cc1cnc(CNC(=O)c2c(=O)c3ccc(N4CCCN(C)CC4)nc3n3c2sc2ccccc23)cn1"
category_label = "High"

[[record]]
compound = "COc1ncnc(C2CC2)c1-c1ncc2cnn(Cc3ccc(-c4nc(C(F)(F)F)cn4C(C)C)cc3)c2n1 + Cc1[nH]c2ccc(F)cc2c1-c1nc2c3cccnc3c3ncccc3c2[nH]1"
category_label = "High"

